# Assay text: microPET imaging of U87MG tumor xenografts in mice
# Format: in vivo, nude mice
# Stated conditions: nude, mouse, kidney, iv, 20 mg/kg, total radioactivity
Observed property: tissue uptake at 2 h

stdin: Return the recorded tissue uptake at 2 h value; entry: N=C(N)NCCC[C@@H]1NC(=O)[C@H](CCCCNC(=O)CC[C@H](NC(=O)COCCOCCOCCNC(=O)[C@@H]2CSC(c3nc4ccc(OCCF)cc4s3)=N2)C(=O)NCCCC[C@@H]2NC(=O)[C@@H](Cc3ccc(O)cc3)NC(=O)[C@H](CC(=O)O)NC(=O)CNC(=O)[C@H](CCCNC(=N)N)NC2=O)NC(=O)[C@@H](Cc2ccc(O)cc2)NC(=O)[C@H](CC(=O)O)NC(=O)CNC1=O [[^18F]CBTRGD2]
stdout: 0.81 %ID/g

====

# Assay text: microPET imaging of U87MG tumor xenografts in mice
# Type: in vivo, nude mice
# Stated conditions: nude, mouse, liver, iv, total radioactivity
Observed property: tissue uptake at 1 h (%ID/g)
Numbers only here, please. The scale is %ID/g.

stdin: Return the recorded tissue uptake at 1 h value; entry: N=C(N)NCCC[C@@H]1NC(=O)[C@H](CCCCNC(=O)CC[C@H](NC(=O)COCCOCCOCCNC(=O)[C@@H]2CSC(c3nc4ccc(OCCF)cc4s3)=N2)C(=O)NCCCC[C@@H]2NC(=O)[C@@H](Cc3ccc(O)cc3)NC(=O)[C@H](CC(=O)O)NC(=O)CNC(=O)[C@H](CCCNC(=N)N)NC2=O)NC(=O)[C@@H](Cc2ccc(O)cc2)NC(=O)[C@H](CC(=O)O)NC(=O)CNC1=O [[^18F]CBTRGD2]
stdout: 2.84

====

# Assay text: microPET imaging of U87MG tumor xenografts in mice
# Type: in vivo, nude mice
# Stated conditions: nude, mouse, kidney, iv, total radioactivity
Observed property: tissue uptake at 1 h (%ID/g)
Numbers only here, please. The scale is %ID/g.

stdin: Return the recorded tissue uptake at 1 h value; entry: N=C(N)NCCC[C@@H]1NC(=O)[C@H](CCCCNC(=O)CC[C@H](NC(=O)COCCOCCOCCNC(=O)[C@@H]2CSC(c3nc4ccc(OCCF)cc4s3)=N2)C(=O)NCCCC[C@@H]2NC(=O)[C@@H](Cc3ccc(O)cc3)NC(=O)[C@H](CC(=O)O)NC(=O)CNC(=O)[C@H](CCCNC(=N)N)NC2=O)NC(=O)[C@@H](Cc2ccc(O)cc2)NC(=O)[C@H](CC(=O)O)NC(=O)CNC1=O [[^18F]CBTRGD2]
stdout: 3.99

====

# Assay text: microPET imaging of U87MG tumor xenografts in mice
# Type: in vivo, nude mice
# Stated conditions: nude, mouse, kidney, iv, 20 mg/kg, total radioactivity
Observed property: tissue uptake at 1 h (%ID/g)
Numbers only here, please. The scale is %ID/g.

stdin: Return the recorded tissue uptake at 1 h value; entry: N=C(N)NCCC[C@@H]1NC(=O)[C@H](CCCCNC(=O)CC[C@H](NC(=O)COCCOCCOCCNC(=O)[C@@H]2CSC(c3nc4ccc(OCCF)cc4s3)=N2)C(=O)NCCCC[C@@H]2NC(=O)[C@@H](Cc3ccc(O)cc3)NC(=O)[C@H](CC(=O)O)NC(=O)CNC(=O)[C@H](CCCNC(=N)N)NC2=O)NC(=O)[C@@H](Cc2ccc(O)cc2)NC(=O)[C@H](CC(=O)O)NC(=O)CNC1=O [[^18F]CBTRGD2]
stdout: 1.26
